Assay: chemical genetic growth profiling, strain panel (AID 1159580);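 further: tested at 20 µM; growth read once vehicle control cultures reached saturation at 30 °C; lower values mean less growth of the strain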
Conditions: S. cerevisiae deletion strains, growth OD, locus YDL035C, strain GPR1
The campaign covered roughly 5,500 compounds. About 2,000 (36%) were called active. Another 18% or so got no clear call; they are omitted. No stated cut-off is given here; in the data, active means normalized growth mostly below about 0.91 (no sharp cut-off); inconclusive means no clear call, values can overlap the other calls; inactive means mostly above about 0.92. This is one part of the list.
Pick one and only one: yes (active), no (inactive)

Ask: What is the recorded call for this compound in the test? O=C(O)C1=C[C@@H](O)[C@@H](O)[C@H](O)C1
Reply: no

Ask: What is the recorded call for this compound in the test? NS(=O)(=O)c1cc(C2(O)NC(=O)c3ccccc32)ccc1Cl (stereo not given)
Reply: no

Ask: What is the recorded call for this compound in the test? CC[n+]1c(-c2ccccc2)c2cc(N)ccc2c2ccc(N)cc21
Reply: yes

Ask: What is the recorded call for this compound in the test? O=C(Cc1cccs1)NC1C(=O)N2C(C(=O)[O-])=C(C[n+]3ccccc3)CSC12 (stereo not given)
Reply: no

Ask: What is the recorded call for this compound in the test? Cc1cc(OC(=O)c2c(C)cc(OC(=O)c3c(C)cc(O)cc3O)cc2O)cc(O)c1C(=O)O
Reply: no
